Experiment: in vitro
Conditions: human, Caco-2, pH 7.4, Percent Recovery 2nd
Structures can show the parent of a compound that is named as a salt. Non-standard residues stand in square brackets, D forms with d. Residues, ends and D or L forms follow the SMILES beside them. Dopa = N[C@@H](Cc1ccc(O)c(O)c1)C(=O)O
In this section we review reported recovery at 40 min, 10 μM values for a set of compounds.
readout label: recovery at 40 min, 10 μM (%)

>>> observed_measurement("N[C@@H](Cc1ccc(O)c(O)c1)C(=O)NCC(=O)O [LD-Gly TFA salt, Levodopa Glycine TFA Salt]")
78
>>> observed_measurement("N[C@@H](Cc1ccc(O)c(O)c1)C(=O)N[C@@H](Cc1c[nH]c2ccccc12)C(=O)O [LD-Trp TFA salt, Levodopa Tryptophan] (H-[Dopa]-Trp-OH)")
82
>>> observed_measurement("NC(=O)CC[C@H](NC(=O)[C@@H](N)Cc1ccc(O)c(O)c1)C(=O)O [LD-Gln TFA salt, Levodopa Glutamine TFA Salt] (H-[Dopa]-Gln-OH)")
92
>>> observed_measurement("NCCCC[C@H](NC(=O)[C@@H](N)Cc1ccc(O)c(O)c1)C(=O)O [LD-Lys TFA salt, Levodopa Lysine TFA Salt] (H-[Dopa]-Lys-OH)")
86
>>> observed_measurement("N[C@@H](CSC[C@@H](NC(=O)[C@@H](N)Cc1ccc(O)c(O)c1)C(=O)O)C(=O)O (single isomer, unassigned; peak 1) [LD-LA1 TFA salt, Levodopa Lanthionine Peak 1 TFA Salt]")
86
